B1: library; numbered along this chain (parent)
chain: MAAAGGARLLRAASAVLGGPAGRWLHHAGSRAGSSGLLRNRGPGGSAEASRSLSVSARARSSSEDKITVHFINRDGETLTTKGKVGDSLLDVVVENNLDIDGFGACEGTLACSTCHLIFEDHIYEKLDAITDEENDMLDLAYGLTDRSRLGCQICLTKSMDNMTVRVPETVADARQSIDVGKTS

Variants of: B1
EXPERIMENT DESCRIPTION: scaled log2 fold change in cell abundance, elesclomol vs control (0 = silent mean, 1 = nonsense mean) (scaled log2 ratio); higher = higher viability under elesclomol (loss of FDX1 cuproptosis function);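 also: variant abundance is its share of total variant reads in each endpoint sample, from next-generation sequencing of the integrated ORF PCR-amplified out of genomic DNA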
RECORDED CONDITIONS: with ABC1 FDX1 KO; elesclomol 5 nM; glucose 10 mM; 14 days
Use scaled log2 fold change to assign classes; range list: group 1: < -0.04; group 2: ≥ -0.04 and < 0.4; group 3: ≥ 0.4

# input Each variant maps to one class by scaled log2 fold change. Which class for `V55W` ?
# output group 2

# input Any idea which band `C152M` is in?
# output group 3

# input Could you tell me which band `G33W` belongs to?
# output group 1

# input Hello team, could you let me know which band the following variant falls into: `P168L`
# output group 3

# input Class label required: `N135D`
# output group 2

# input # bin lookup: classify `L37Q` by its scaled log2 fold change
# output group 1

New cases:
# input Lab note: which band did `T164N` land in?
# output group 2

# input Into which category would you place `C115S` ?
# output group 3

# input Band of `R41T` ?
# output group 2

# input Looking at `G33P` , which class would you pick?
# output group 1

# input Please indicate the class for `H27T` based on its scaled log2 fold change.
# output group 1

# input Dear colleague, I would appreciate it if you could identify the bin for `L127K` and reply at your convenience.
# output group 3

# input Would you mind sorting `A4N` into the appropriate category?
# output group 2

# input Which bin, given its scaled log2 fold change, does `A111R` occupy?
# output group 1

# input Using the reported scaled log2 fold change, which band applies to `Y124I` ?
# output group 2

# input Please indicate the class for `L98C` based on its scaled log2 fold change.
# output group 1

# input In plain terms, what class is `V93P` ?
# output group 3

# input Dear colleague, I would appreciate it if you could identify the bin for `A2P` and reply at your convenience.
# output group 2

# input Any idea which band `V94G` is in?
# output group 1

# input Classify this variant: `G86R`
# output group 2

# input Field: class (scaled log2 fold change) — entry: `K126R`
# output group 1
